Values from PubChem BioAssay (NCATS)

Tested on: HaCat
experiment.description: Cytotoxic Profiling of Annotated Libraries Using Quantitative High-Throughput Screening (AID 1296008); further: on the % scale 0 is the no-effect control and ±100 the full control effect; nearly all actives have a fitted effect of over 60% in size
test.context: Five cell lines viability, CellTiter-Glo ATP luminescence, 48-72 h; hits give low values
Results filed as inconclusive are left out.
readout.kind: max response (%)

INSERT INTO results (compound, system_under_test, measured_value) VALUES
  ('CC1CCC2C(C(=O)O)=CC3CC(C)(C)CC132 (centres undefined)', 'HaCat', -7.87),
  ('COC(=O)[C@H](OC(C)=O)[C@H]1C(C)(C)C(=O)[C@H]2CC3=C4CC(=O)O[C@@H](c5ccoc5)[C@]4(C)CCC3[C@@]1(C)C2=O (some centres undefined)', 'HaCat', -1.64),
  ('CCNC(=O)[C@@H]1CCCN1C(=O)[C@H](CCCN=C(N)N)NC(=O)[C@H](CC(C)C)NC(=O)[C@@H](C)NC(=O)[C@H](Cc1ccc(O)cc1)NC(=O)[C@H](CO)NC(=O)[C@H](Cc1c[nH]c2ccccc12)NC(=O)[C@H](Cc1cnc[nH]1)NC(=O)[C@@H]1CCC(=O)N1', 'HaCat', -3.68),
  ('C[C@@H]1O[C@@H](O[C@H]2[C@H](OC(=O)C34CCC(C)(C)CC3C3=CCC5C6(C)CC(O)C(O[C@@H]7O[C@H](CO)[C@@H](O)[C@H](O)[C@H]7O)C(C)(C(=O)O)C6CCC5(C)C3(CO)CC4)O[C@H](C)[C@H](O)[C@@H]2O)[C@H](O)[C@H](O)[C@H]1O[C@@H]1OC[C@@H](O)[C@H](O)[C@H]1O (some centres undefined)', 'HaCat', 3.66),
  ('CN1C(=O)c2ccccc2NC(=O)[C@]12O[C@@H]2c1cccc(O)c1', 'HaCat', -7.54),
  ('COc1ccc2c(c1)O[C@H](O[C@@H]1O[C@H](CO)[C@@H](O)[C@H](O)[C@H]1O)C(=O)N2', 'HaCat', -4.71),
  ('CC(C)(C)NCc1cc(Nc2ccnc3cc(Cl)ccc23)c2c(c1O)CCCC2', 'HaCat', -6.14),
  ('COCC(=O)N1CCc2cc(-c3csc(NC(=O)c4cc(OC)cc(OC)c4)n3)ccc21', 'HaCat', -4),
  ('CC1(C)CC[C@]2(C(=O)O)CC[C@]3(C)C(=CCC4[C@@]5(C)CC[C@H](O[C@@H]6O[C@H](C(=O)O)[C@@H](O)[C@H](O)[C@H]6O)C(C)(CO)C5CC[C@]43C)C2C1 (some centres undefined)', 'HaCat', -0.619),
  ('NC1CCC(N[C@@H]2C[C@H]2c2ccccc2)CC1 (some centres undefined)', 'HaCat', -1.71),
  ('CC1NC(=O)C(Cc2c[nH]c3ccccc23)NC1=O (centres undefined)', 'HaCat', 2.4),
  ('COc1cc(/C=C/C(=O)O[C@H]2[C@H](OC(=O)/C=C/c3cc(OC)c(O)c(OC)c3)O[C@H](CO[C@@H]3O[C@H](CO)[C@@H](O)[C@H](O)[C@H]3O)[C@@H](O)[C@@H]2O)ccc1O', 'HaCat', -26),
  ('CC(C)CC1(C(=O)OCc2ccc(O[C@@H]3O[C@H](CO)[C@@H](O)[C@H](O)[C@H]3O)cc2)CC(=O)OC(C(=O)O)CC(=O)OCC2OC(O1)C(OC(=O)/C=C/c1ccc(O)cc1)C(O)C2O (some centres undefined)', 'HaCat', -1.08),
  ('COc1ccccc1-n1c(SCC(=O)Nc2nc3ccc(C)cc3s2)nc2c(c1=O)SCC2', 'HaCat', -3.57),
  ('CC1(C)CC[C@]2(C(=O)O)CC[C@]3(C)C(=CCC4[C@@]5(C)C[C@@H](O)[C@H](O)C(C)(C)C5CC[C@]43C)[C@@H]2[C@@H]1O (some centres undefined)', 'HaCat', -22.1),
  ('O=C(O)c1cc(O)c2cccc(O)c2c1O[C@@H]1O[C@H](CO)[C@@H](O)[C@H](O)[C@H]1O', 'HaCat', 2.74),
  ('c1ccc(Cc2ncc3c(n2)CCNCC3)cc1', 'HaCat', -4.11),
  ('C[C@@H]1O[C@@H](O[C@H]2[C@H](OC(=O)[C@]34CCC(C)(C)C[C@H]3C3=CCC5[C@@]6(C)CC[C@H](O[C@@H]7O[C@H](CO[C@@H]8OC[C@H](O)[C@H](O)[C@H]8O)[C@@H](O)[C@H](O)[C@H]7O)C(C)(C)C6CC[C@@]5(C)[C@]3(C)C[C@H]4O)OC[C@@H](O)[C@@H]2O)[C@H](O)[C@H](O)[C@H]1O[C@@H]1OC[C@H](O)[C@H](O[C@@H]2OC[C@@H](O)[C@H](O)[C@H]2O)[C@H]1O (some centres undefined)', 'HaCat', -0.578),
  ('C/C(=C\CCC(C(=O)O)C1CCC2(C)C3=C(CCC12C)C1(C)CCC(=O)C(C)(C)C1CC3)C(=O)O (centres undefined)', 'HaCat', 0.998),
  ('O=C1NCc2nc3ccccc3c(=O)n2C1Cc1c[nH]c2ccccc12 (centres undefined)', 'HaCat', 1.57),
  ('CC1=C2C(=O)O[C@@H](c3ccoc3)[C@]2(C)CCC1', 'HaCat', 0.193),
  ('CC1(C)NC2N(C1=O)c1ccccc1C2(O)CC(C(=O)O)n1cnc2ccccc2c1=O (centres undefined)', 'HaCat', -3.78),
  ('Cn1c(=O)c2nc(/C=C/c3cccc(Cl)c3)n(C)c2n(C)c1=O', 'HaCat', -5.76),
  ('Cc1ccc2c(c1)C=Cc1cc(C)ccc1C2c1cn(Cc2ccc(C(=O)Nc3nn[nH]n3)o2)c(=O)[nH]c1=S', 'HaCat', -1.86),
  ('COc1cc(C(=O)OC[C@H]2O[C@H](O[C@@]3(CO)O[C@@H](CO)[C@H](O)[C@H]3O)[C@H](O)[C@@H](O)[C@@H]2O)ccc1O', 'HaCat', 2.76),
  ('O=c1c2ccccc2nc2n1CCC2O (centres undefined)', 'HaCat', 4.07),
  ('O=C(CCO[C@@H]1O[C@H](CO)[C@@H](O)[C@H](O)[C@H]1O)c1ccc(O)cc1', 'HaCat', -12),
  ('CC1(C)CCC(C)(C)c2cc3c(cc21)Sc1ccccc1N=C3c1ccc(C(=O)O)cc1', 'HaCat', -6.28),
  ('O=C(O)c1n[nH]c2c1C[C@H]1C[C@@H]21', 'HaCat', 2.24);
